system: PCSK9 gene splice site; assay type: cell-based, human
Entries annotated with measured Human Primary Hepatocytes-splice site editing % 5000 ng/mL
# value in %; strip the unit string

Below, each entry is followed by its recorded Human Primary Hepatocytes-splice site editing % 5000 ng/mL result.
Molecule	Value Reported
GA089: PCSK9 gRNA for ABE8.8 splice site editing, Human/Cyno (nucleic acid, 2'-O-methyl at 1, 2, other sugars and backbone not given here; further chemistry not fully specified, PCSK9 gRNA for ABE8.8 splice site editing, Human/Cyno) guide: CCCCAGGCTGCAGCTCCCACGTTTTAGAGCTAGAAATAGCAAGTTAAAATAAGGCTAGTCCGTTATCAACTTGAAAAAGTGGCACCGAGTCGGTGCTTTT	18.1
GA078: PCSK9 gRNA for ABE8.8 splice site editing, Human/Cyno (nucleic acid, listed as RNA; note = Description of Combined DNA/RNA Molecule: Synthetic oligonucleotide; modified_base 1: mod_base = OTHER; note = 2'-O-Methyl-adenosine phosphorothioate; modified_base, PCSK9 gRNA for ABE8.8 splice site editing, Human/Cyno) guide: AGCACCTACCTCGGGAGCTGGTTTTAGAGCTAGAAATAGCAAGTTAAAATAAGGCTAGTCCGTTATCAACTTGAAAAAGTGGCACCGAGTCGGTGCTTTT	12.6
GA090: PCSK9 gRNA for ABE8.8 splice site editing, Human/Cyno (nucleic acid, listed as RNA; modified_base 1: mod_base = OTHER; note = 2'-O-Methyl-guanosine phosphorothioate; modified_base 2: mod_base = OTHER; note = 2'-O-Methyl-cytidine phosphorothioate; modified_b, PCSK9 gRNA for ABE8.8 splice site editing, Human/Cyno) guide: GCAGGTGACCGTGGCCTGCGGTTTTAGAGCTAGAAATAGCAAGTTAAAATAAGGCTAGTCCGTTATCAACTTGAAAAAGTGGCACCGAGTCGGTGCTTTT	0.4
GA082: PCSK9 gRNA for ABE8.8 splice site editing, Human/Cyno (nucleic acid, listed as RNA; modified_base 1: mod_base = OTHER; note = 2'-O-Methyl-cytidine phosphorothioate; modified_base 2: mod_base = OTHER; note = 2'-O-Methyl-uridine phosphorothioate; modified_bas, PCSK9 gRNA for ABE8.8 splice site editing, Human/Cyno) guide: CTTACCTGCCCCATGGGTGCGTTTTAGAGCTAGAAATAGCAAGTTAAAATAAGGCTAGTCCGTTATCAACTTGAAAAAGTGGCACCGAGTCGGTGCTTTT	9.8
GA084: PCSK9 gRNA for ABE8.8 splice site editing, Human/Cyno (nucleic acid, 2'-O-methyl at 1, 2, other sugars and backbone not given here; further chemistry not fully specified, PCSK9 gRNA for ABE8.8 splice site editing, Human/Cyno) guide: CCTCTTCACCTGCTCCTGAGGTTTTAGAGCTAGAAATAGCAAGTTAAAATAAGGCTAGTCCGTTATCAACTTGAAAAAGTGGCACCGAGTCGGTGCTTTT	8.6
GA077: PCSK9 gRNA for ABE8.8 splice site editing, Human/Cyno (nucleic acid, 2'-O-methyl at 1, 2, other sugars and backbone not given here; further chemistry not fully specified, PCSK9 gRNA for ABE8.8 splice site editing, Human/Cyno) guide: UCCCAGGCCTGGAGTTTATTGTTTTAGAGCTAGAAATAGCAAGTTAAAATAAGGCTAGTCCGTTATCAACTTGAAAAAGTGGCACCGAGTCGGTGCTTTT	6.0

Please turn your attention to the following entry.
Value of measured Human Primary Hepatocytes-splice site editing % 5000 ng/mL for the entry GA079: PCSK9 gRNA for ABE8.8 splice site editing, Human/Cyno (nucleic acid, listed as RNA; modified_base 1: mod_base = OTHER; note = 2'-O-Methyl-cytidine phosphorothioate; modified_base 2: mod_base = OTHER; note = 2'-O-Methyl-uridine phosphorothioate; modified_bas, PCSK9 gRNA for ABE8.8 splice site editing, Human/Cyno) guide: CTTTCCAGGTCATCACAGTTGTTTTAGAGCTAGAAATAGCAAGTTAAAATAAGGCTAGTCCGTTATCAACTTGAAAAAGTGGCACCGAGTCGGTGCTTTT : 6.5
